Origin of the recorded values: the supplement of paper PMC13380429

Test system: Vero E6 infected with SARS-CoV-2
Assay: inhibition of SARS-CoV-2 cytopathic effect; higher = more antiviral protection, active = above 15
Details: 10000 nM; 48 h
Please go through the items and note down their inhibition of SARS-CoV-2 cytopathic effect.
Express the result in % but write the number alone.

Query: Give the measured inhibition of SARS-CoV-2 cytopathic effect for O=[N+]([O-])c1nccn1CC(O)CN1CCCCC1 (stereo not drawn)
Response: -0.59

Query: Indicate its recorded inhibition of SARS-CoV-2 cytopathic effect; the compound in question is NC(=O)c1ccc([N+](=O)[O-])cc1Cl [aklomide]
Response: 0.79

Query: For the compound O=C(c1ccc(OCCCc2c[nH]cn2)cc1)C1CC1 , report inhibition of SARS-CoV-2 cytopathic effect.
Response: 10.2

Query: Entry Cc1ccc(S(=O)(=O)/C=C/C#N)cc1 needs its inhibition of SARS-CoV-2 cytopathic effect filled in; supply it.
Response: 18.8

Query: Retrieve inhibition of SARS-CoV-2 cytopathic effect measured for Cc1cc2c(s1)Nc1ccccc1N=C2N1CCN(C)CC1 and print it.
Response: 1.41

Query: Retrieve inhibition of SARS-CoV-2 cytopathic effect measured for CCCC[C@H](NC(C)=O)C(=O)N[C@H]1CC(=O)NCCCC[C@@H](C(=O)O)NC(=O)[C@H](Cc2c[nH]c3ccccc23)NC(=O)[C@H](CCCNC(=N)N)NC(=O)[C@@H](Cc2ccccc2)NC(=O)[C@H](Cc2c[nH]cn2)NC1=O [bremelanotide] and print it.
Response: 0.21

Query: Dear colleague, please send me the reported inhibition of SARS-CoV-2 cytopathic effect for CCc1cccc(N(C)C(=N)Nc2cccc3ccccc23)c1 when you can.
Response: -4.82

Query: Please indicate inhibition of SARS-CoV-2 cytopathic effect recorded for CCS(=O)(=O)CCn1c([N+](=O)[O-])cnc1C
Response: -0.87

Query: Dear colleague, please send me the reported inhibition of SARS-CoV-2 cytopathic effect for COc1ccc(Cc2nccc3cc(OC)c(OC)cc23)cc1OC when you can.
Response: -1.53

Query: Tell me inhibition of SARS-CoV-2 cytopathic effect reported for CC(C)CCNc1ncccc1C(=O)N1CCN(Cc2ccccc2)CC1
Response: -0.35

Query: Supply reported inhibition of SARS-CoV-2 cytopathic effect belonging to this compound: CC(C)C(=O)c1c(C(C)C)nn2ccccc12
Response: 2.39

Query: Name the recorded inhibition of SARS-CoV-2 cytopathic effect of the item NC(=O)C[C@H](N)C(=O)O in your answer.
Response: -0.9

Query: Read the entry CN1[C@@H]2CC[C@H]1C[C@@H](OC(=O)N1Cc3ccccc3NC1=O)C2 and write its reported inhibition of SARS-CoV-2 cytopathic effect.
Response: -0.21

Query: Tell us which inhibition of SARS-CoV-2 cytopathic effect value is on record for CC(C)Oc1ccc2c(=O)c3cc(C(=O)O)ccc3oc2c1
Response: -1

Query: Name the recorded inhibition of SARS-CoV-2 cytopathic effect of the item COc1cccc(Nc2ncnn3ccc(CN4CC[C@@H](N)[C@H](O)C4)c23)c1 in your answer.
Response: -22.6

Query: Quick one: give measured inhibition of SARS-CoV-2 cytopathic effect for CNC(=O)N(C)N=O
Response: -2.36

Query: Complete the entry with inhibition of SARS-CoV-2 cytopathic effect for CC(C)CC(N)=O [isovaleramide]
Response: 0.19

Query: Quote inhibition of SARS-CoV-2 cytopathic effect reported for CC(C)(C)CCN1C[C@@H]2[C@@H](CNC(=O)c3cc(Cl)cc(Cl)c3)[C@@H]2C1 please.
Response: -10.4

Query: Supply inhibition of SARS-CoV-2 cytopathic effect value. Item: Oc1c(Cl)cc(Cl)c2cccnc12
Response: -0.15

Query: # return recorded inhibition of SARS-CoV-2 cytopathic effect for input Nc1ncnc2c1c(COc1cccc(Cl)c1)nn2C1CCOCC1
Response: -0.4

Query: Identify the reported inhibition of SARS-CoV-2 cytopathic effect for the following entry. NC(=O)NC(=O)Cc1ccccc1 [phenacemide]
Response: 0.35

Query: Quote inhibition of SARS-CoV-2 cytopathic effect reported for CCCCCCCC/C=C\CCCCCCCC(=O)NCc1ccc(O)c(OC)c1 please.
Response: 2.19

Query: Please indicate inhibition of SARS-CoV-2 cytopathic effect recorded for Cc1onc(O)c1C[C@@H](N)C(=O)O (racemic)
Response: 1.4

Query: Tell me measured inhibition of SARS-CoV-2 cytopathic effect for C#C[C@]1(OC(C)=O)CC[C@H]2[C@@H]3CCC4=CC(=NO)CC[C@@H]4[C@H]3CC[C@@]21CC (mixture of isomers) [norgestimate] please.
Response: -3.22

Query: // fetch inhibition of SARS-CoV-2 cytopathic effect given entry CC(C)(C)c1ccc(O)cc1
Response: 2.59

Query: Indicate its recorded inhibition of SARS-CoV-2 cytopathic effect; the compound in question is COC(=O)C(Cc1ccc(OCCn2c(=O)sc3cc(C(=O)c4ccccc4)ccc32)cc1)C(=O)OC
Response: 0.02

Query: For the compound CC(C)Cc1ccc([C@@H](C)C(=O)NCCO)cc1 (racemic) , give its measured inhibition of SARS-CoV-2 cytopathic effect value.
Response: -4.85

Query: State its inhibition of SARS-CoV-2 cytopathic effect: Cc1cnc(-c2cc(N3CCN(C(=O)CCS(C)(=O)=O)CC3)ncc2Cl)c(C)c1
Response: -0.86

Query: Return the recorded inhibition of SARS-CoV-2 cytopathic effect value; entry: C=C(C)[C@@H]1CC[C@]2(CO)CC[C@]3(C)[C@H](CC[C@@H]4[C@@]5(C)CC[C@H](O)C(C)(C)[C@@H]5CC[C@]43C)[C@@H]12
Response: -12.6

Query: Report inhibition of SARS-CoV-2 cytopathic effect, nothing else, for this compound: CN1[C@@H]2CC[C@H]1C[C@@H](OC(=O)c1c[nH]c3ccccc13)C2
Response: -1.17

Query: Report inhibition of SARS-CoV-2 cytopathic effect for CN1C(=O)CCS(=O)(=O)C1c1ccc(Cl)cc1 (stereo not drawn)
Response: 1.19

Query: Please list inhibition of SARS-CoV-2 cytopathic effect recorded for the compound CNC(=O)c1c(C)oc2cc(Oc3ncnc4cc(OC)c(OC)cc34)ccc12
Response: -0.11

Query: Give the reported value of inhibition of SARS-CoV-2 cytopathic effect for this record: CNC(=O)[C@H](Cc1c[nH]c2ccccc12)NC(=O)[C@@H](CC(=O)NO)CC(C)C
Response: -0.18

Query: Please give measured inhibition of SARS-CoV-2 cytopathic effect of the following entry: CC(C)c1cc(C(C)C)c(CC(=O)NS(=O)(=O)Oc2c(C(C)C)cccc2C(C)C)c(C(C)C)c1
Response: -1.52

Query: For the compound CCOC(=O)Nc1ccc2c(c1)N(C(=O)CCN(CC)CC)c1ccccc1S2 , report inhibition of SARS-CoV-2 cytopathic effect.
Response: 2.9

Query: Provide one value: measured inhibition of SARS-CoV-2 cytopathic effect of C=C1C(=O)O[C@@H]2[C@H]3O[C@]3(C)CC/C=C(\C)CC[C@@H]12 [parthenolide-(alternate-stereo)]
Response: 23.8

Query: Find the measured inhibition of SARS-CoV-2 cytopathic effect of COc1cccc2c1c(O)c(C(=O)N(C)c1ccc(C(F)(F)F)cc1)c(=O)n2C and report it.
Response: 1.05

Query: For the compound CC(C)(O)C(Cl)(Cl)Cl , give its reported inhibition of SARS-CoV-2 cytopathic effect.
Response: -2.07

###

So I've got a bunch of compounds here, and I need their morphology score values.
Test system: Vero E6 infected with SARS-CoV-2
Test: morphology score (similarity to uninfected cells); higher = more like uninfected cells
Conditions: 24 h
Give your answer as a number; write no unit.

Query: For the compound C=C1/C(=C\C=C2/CCC[C@]3(C)[C@@H]([C@H](C)CCCC(C)C)CC[C@@H]23)C[C@@H](O)C[C@@H]1O [alfacalcidol] (10 µM) , give its reported morphology score.
Response: 0.0852

Query: Provide only the value of recorded morphology score for CC(=O)Nc1ccc(C(=O)NC(C)(C)C)cc1 (10 µM)
Response: 0.0601

Query: Check the records and state morphology score for CC(=O)OC[C@H]1O[C@@H](n2ccc(=O)[nH]c2=O)[C@H](OC(C)=O)[C@@H]1OC(C)=O [uridine-triacetate] (10 µM)
Response: -0.0249

Query: Provide only the value of recorded morphology score for CCCCC#Cc1nc(NC)c2ncn([C@@H]3O[C@H](CO)[C@@H](O)[C@H]3O)c2n1 (10 µM)
Response: 0.143

###

Would you kindly list SARS-CoV-2 infection rate for each of these molecules?
System: Vero E6 infected with SARS-CoV-2
Experiment: SARS-CoV-2 infection rate relative to infected DMSO; higher = more infection, active = 60 or less
Conditions: 24 h
All answers are understood in %, so give the number only.

Query: Input CCC(=O)Nc1cccc(Oc2nc(Nc3ccc(N4CCN(C)CC4)cc3OC)ncc2Cl)c1 (10 µM) , output reported SARS-CoV-2 infection rate.
Response: 114

Query: For the molecule N=C(NCCCCCCNC(=N)NC(=N)Nc1ccc(Cl)cc1)NC(=N)Nc1ccc(Cl)cc1 [chlorhexidine] (0.833333 µM) , give its reported SARS-CoV-2 infection rate.
Response: 58

Query: Supply SARS-CoV-2 infection rate value. Item: O=C(/C=C/c1ccc(O)c(O)c1)c1ccc(O)cc1O [butein] (10 µM)
Response: 106

Query: Return value of SARS-CoV-2 infection rate for input O=C1C2CC=CCC2C(=O)N1SC(Cl)(Cl)Cl (centres undefined) [captan] (10 µM) , no commentary.
Response: 93
